These measurements were taken from patent US20190218277A1.

What pKd was measured for each of the following?
MEASUREMENT_TARGET: T1, Recombinant soluble E protein (0.8E-His) from DENV-1 (DENV-1, UniProt P27909 281-675)
T1 construct: also called DENV-1 E protein; DV1
Quick note: pKd values are minus log10 of concentrations in mol/L.

**Query** I have this binder here, DG_3CH1047-SG182/3CL633-SK1 (antibody, V domains shown) VH: QVQLVQSGPDVEKPGASVKVSCKASGYTFTSYYMHWVRQAPGQGLEWMGVINPRGGSRRSAQKFQGRITMTRDTSTSTVYMELSSLRSEDTAVYYCARGGEALFYDSYTTPFDGGSWWFDPWGQGSLVTVSS VL: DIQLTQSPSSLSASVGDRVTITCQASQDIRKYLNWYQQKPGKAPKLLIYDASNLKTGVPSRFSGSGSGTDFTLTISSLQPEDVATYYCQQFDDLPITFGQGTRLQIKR , and I need its recorded pKd.
**Result** 9.02

**Query** Again, but for DG_3CH1047-SG182/3CL658-SK1 (antibody, human IgG1, kappa, V domains shown, also called 3Cam) VH: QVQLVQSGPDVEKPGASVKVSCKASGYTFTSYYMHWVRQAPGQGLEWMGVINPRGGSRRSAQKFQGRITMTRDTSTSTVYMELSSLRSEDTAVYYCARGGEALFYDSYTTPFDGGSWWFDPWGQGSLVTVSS VL: DIQLTQSPSSLSASVGDRVTFTCQASQEIRKYLNWYQQKPGKAPKLLIYDASELKTGVPSRFSGSGSGTDFTFTISSLQPEDVATYYCQQFEDLPITFGQGTRLQIKR
**Result** 8.53

**Query** Now try DG_3CH1046-SG182/3CL668-SK1 (antibody, V domains shown) VH: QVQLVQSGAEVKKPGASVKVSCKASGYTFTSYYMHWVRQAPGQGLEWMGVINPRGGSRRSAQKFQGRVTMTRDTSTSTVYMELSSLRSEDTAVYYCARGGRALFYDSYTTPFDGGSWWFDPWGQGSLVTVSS VL: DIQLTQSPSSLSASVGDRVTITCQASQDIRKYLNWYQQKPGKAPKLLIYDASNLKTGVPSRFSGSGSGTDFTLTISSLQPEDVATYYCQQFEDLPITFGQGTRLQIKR .
**Result** 8.81
